target: CXCR4 receptors (Homo sapiens); construct: expressing endogenous CXCR4 receptors; endogenous in cells; experiment: CXCR4-CEM calcium flux assay, antagonist mode (inhibition of SDF-1α-induced calcium flux); details: inhibition of calcium flux induced by 4 nM SDF-1α in CCRF-CEM cells
Sequence (P61073 whole entry): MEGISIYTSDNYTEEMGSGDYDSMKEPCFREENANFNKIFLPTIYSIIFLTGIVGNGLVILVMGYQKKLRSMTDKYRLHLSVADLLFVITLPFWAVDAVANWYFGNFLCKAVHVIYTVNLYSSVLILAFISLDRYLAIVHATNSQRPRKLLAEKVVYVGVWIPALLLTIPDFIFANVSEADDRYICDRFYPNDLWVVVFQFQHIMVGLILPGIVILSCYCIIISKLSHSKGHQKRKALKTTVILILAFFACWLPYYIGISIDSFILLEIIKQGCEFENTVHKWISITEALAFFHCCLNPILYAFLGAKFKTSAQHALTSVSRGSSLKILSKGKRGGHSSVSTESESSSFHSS
pIC50: −log10 of the molar value.
testReadout: pIC50

Answered examples (3):
Incoming: Look up pIC50 of CN(Cc1cn2c(N3CCN(C(=O)Nc4ccccc4)CC3)nccc2n1)[C@H]1CCCc2cccnc21 and report it.
Outgoing: 6.89

Incoming: Determine its reported pIC50: CN(Cc1cn2c(N3CCN(Cc4cccn4C)CC3)nccc2n1)[C@H]1CCCc2cccnc21
Outgoing: 8.34

Incoming: Assign pIC50 to the following record: CN(Cc1cn2c(N3CCN(CC(=O)O)CC3)nccc2n1)[C@H]1CCCc2cccnc21
Outgoing: 7.04

(I) CN1CCN(c2nccc3nc(CN(C)[C@H]4CCCc5cccnc54)cn23)C[C@H]1CO
(II) CN(Cc1cn2c(N3CCN(Cc4cccs4)CC3)nccc2n1)[C@H]1CCCc2cccnc21
Incoming: Kindly identify which of I and II has the larger recorded pIC50 value. Reply with the label of the item you choose.
Outgoing: II
(II: 7.85, I: 7.57)

(I) CCOC(=O)CN1CCN(c2nccc3nc(CN(C)[C@H]4CCCc5cccnc54)cn23)CC1
(II) CN(Cc1cn2c(N3CCN(Cc4ccncc4)CC3)nccc2n1)[C@H]1CCCc2cccnc21
Incoming: Returns the identifier with the smallest measured pIC50 among I and II . API: response body contains the label of the selected item.
Outgoing: I
(I: 6.52, II: 7.11)

Values from patent US10450318B2
